Origin of values: patent US20230096766A1

For each of the compounds below, state its Papp.
Experiment: in vitro
Details: human, Caco-2, Caco-2 (cm/sec)
Where a SMILES comes first, the peptide text is derived from it. Bridges are numbered along the chain shown (N, C = ends). [ ]: non-standard residue; d: D form. The star is where a group is joined. NMePhe(3-Cl) = CN[C@@H](Cc1cccc(Cl)c1)C(=O)O; NMeF = CN[C@@H](Cc1ccccc1)C(=O)O; NMeL = CN[C@@H](CC(C)C)C(=O)O; Butyl(3R-OH) = C[C@@H](O)CC*; Piperidide = C1CCN(*)CC1; NBuGly = CCCCNCC(=O)O; Propyl(3-OH) = OCCC*; Sar = CNCC(=O)O
Field: numeric (×10⁻⁶ cm/s). Do not append units.

input: For CCCCN1CC(=O)N(C)[C@@H](Cc2cccc(Cl)c2)C(=O)N(C)[C@@H](CC(C)C)C(=O)N[C@@H](COCCCO)C(=O)N(C)[C@@H](CC(C)C)C(=O)N[C@H](C(=O)N2CCCCC2)CC(=O)N(C)CC(=O)N(C)[C@@H](Cc2ccccc2)C(=O)N[C@@H]([C@@H](C)CC)C(=O)N(C)[C@@H](CC(C)C)C(=O)N[C@@H]([C@@H](C)O)C1=O [AP96] ([Sar][NMeF]I[NMeL]T[NBuGly][NMePhe(3-Cl)][NMeL]S(Propyl(3-OH))[NMeL]D-Piperidide; lactam N-11) , write its Papp.
output: 0.17

input: Report Papp for CC(C)C[C@@H]1NC(=O)[C@H](Cc2ccccc2)N(C)C(=O)[C@@H](C(C)C)NC(=O)C[C@@H](C(=O)N2CCCCC2)NC(=O)[C@H](CC(C)C)N(C)C(=O)[C@H](Cc2cccc(Cl)c2)N(C)C(=O)[C@H](COCC[C@@H](C)O)NC(=O)[C@H](CC(C)C)N(C)C(=O)CN(C)C(=O)[C@H]([C@@H](C)O)NC(=O)[C@H](CC(C)C)N(C)C1=O [AP109] ([dV][NMeF]L[NMeL]T[Sar][NMeL]S(Butyl(3R-OH))[NMePhe(3-Cl)][NMeL]D-Piperidide; lactam N-11)
output: 0.64
